Molecular target: human GLP-1 receptor (GLP-1R) (human, UniProt P43220 24-463); also: reference of the scale not given here
Assay: cell-based or functional assay
So basically: hGLP1R cAMP EC50 ratio at 0.2 ratio or higher? That is satisfied. Lower than 0.2 ratio? That is not satisfied.

Answered examples (5):
binder	group label
XXEGTFTSDYSIXLDXKAQXEFIEXLIEGGPSSGAPPPS (D-Tyr1; Aib2; αMeL13; Orn16; K17 conjugated to (2-[2-(2-Amino-ethoxy)-ethoxy]-acetyl)2-(γ-Glu)-CO-(CH2)18-CO2H; Aib20; αMeY25; C-terminal amide) [Example 380]	not satisfied
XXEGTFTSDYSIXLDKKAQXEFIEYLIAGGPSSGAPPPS (D-Tyr1; Aib2; αMeL13; K17 conjugated to (2-[2-(2-Amino-ethoxy)-ethoxy]-acetyl)-(γ-Glu)-CO-(CH2)18-CO2H; Aib20; C-terminal amide) [Example 378]	not satisfied
XXEGTFTSDYSIXLDXKAQXDFIEYLIAGGPSSGAPPPS (D-Tyr1; Aib2; αMeL13; Orn16; K17 conjugated to (2-[2-(2-Amino-ethoxy)-ethoxy]-acetyl)2-(γ-Glu)-CO-(CH2)18-CO2H; Aib20; C-terminal amide) [Example 369]	satisfied
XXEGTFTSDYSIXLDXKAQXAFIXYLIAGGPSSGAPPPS (D-Tyr1; Aib2; αMeL13; Orn16; K17 conjugated to (2-[2-(2-Amino-ethoxy)-ethoxy]-acetyl)2-(γ-Glu)-CO-(CH2)16-CO2H; Aib20; D-Glu24; C-terminal amide) [Example 363]	not satisfied
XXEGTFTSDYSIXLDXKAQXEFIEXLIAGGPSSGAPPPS (D-Tyr1; Aib2; αMeL13; Orn16; K17 conjugated to (2-[2-(2-Amino-ethoxy)-ethoxy]-acetyl)2-(γ-Glu)-CO-(CH2)16-CO2H; Aib20; αMeY25; C-terminal amide) [Example 375]	not satisfied

QUERY: Item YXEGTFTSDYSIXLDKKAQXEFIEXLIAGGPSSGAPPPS (Aib2; αMeL13; K17 conjugated to (2-[2-(2-Amino-ethoxy)-ethoxy]-acetyl)2-(γ-Glu)-CO-(CH2)18-CO2H; Aib20; αMeY25; C-terminal amide) [Example 367] with hGLP1R cAMP EC50 ratio of 0.2 ratio or above?
RESULT: satisfied

QUERY: Determine whether this binder has hGLP1R cAMP EC50 ratio no lower than 0.2 ratio: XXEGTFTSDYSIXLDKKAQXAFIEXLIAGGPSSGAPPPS (D-Tyr1; Aib2; αMeL13; K17 conjugated to (2-[2-(2-Amino-ethoxy)-ethoxy]-acetyl)-(γ-Glu)-CO-(CH2)18-CO2H; Aib20; αMeY25; C-terminal amide) [Example 373]
RESULT: not satisfied

QUERY: Please tell me: is the binder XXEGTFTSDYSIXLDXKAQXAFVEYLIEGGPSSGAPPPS (D-Tyr1; Aib2; αMeL13; Orn16; K17 conjugated to (2-[2-(2-Amino-ethoxy)-ethoxy]-acetyl)2-(γ-Glu)-CO-(CH2)18-CO2H; Aib20; C-terminal amide) [Example 360] at or over 0.2 ratio in terms of hGLP1R cAMP EC50 ratio?
RESULT: not satisfied

QUERY: Reported hGLP1R cAMP EC50 ratio at or above 0.2 ratio? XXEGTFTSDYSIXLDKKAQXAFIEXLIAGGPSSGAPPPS (D-Tyr1; Aib2; αMeL13; K17 conjugated to (2-[2-(2-Amino-ethoxy)-ethoxy]-acetyl)2-(γ-Glu)-CO-(CH2)18-CO2H; Aib20; αMeY25; C-terminal amide) [Example 365]
RESULT: not satisfied

QUERY: # check: hGLP1R cAMP EC50 ratio of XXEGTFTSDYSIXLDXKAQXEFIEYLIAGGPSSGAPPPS (D-Tyr1; Aib2; αMeL13; Orn16; K17 conjugated to (2-[2-(2-Amino-ethoxy)-ethoxy]-acetyl)2-(γ-Glu)-CO-(CH2)16-CO2H; Aib20; C-terminal amide) [Example 368] is greater than or equal to 0.2 ratio
RESULT: satisfied

QUERY: Form field: hGLP1R cAMP EC50 ratio at least 0.2 ratio? Entry: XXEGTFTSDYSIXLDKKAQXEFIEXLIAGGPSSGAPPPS (D-Tyr1; Aib2; αMeL13; K17 conjugated to (2-[2-(2-Amino-ethoxy)-ethoxy]-acetyl)-(γ-Glu)-CO-(CH2)18-CO2H; Aib20; αMeY25; C-terminal amide) [Example 372]
RESULT: not satisfied
